Target: human H-PGDS (Homo sapiens (Human), UniProt O60760)
Sequence (O60760 whole entry): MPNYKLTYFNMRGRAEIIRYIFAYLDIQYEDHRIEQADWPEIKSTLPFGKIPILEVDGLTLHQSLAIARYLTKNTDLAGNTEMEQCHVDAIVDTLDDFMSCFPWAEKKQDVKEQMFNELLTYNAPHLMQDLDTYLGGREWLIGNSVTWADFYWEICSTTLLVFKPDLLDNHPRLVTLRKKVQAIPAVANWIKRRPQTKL
Assay: Human H-PGDS binding inhibitory activity (AlphaLISA antagonistic assay)
Conditions: His-tagged human H-PGDS 0.3 nmol/L, biotinylated H-PGDS inhibitor 45 nmol/L
Quick list: IC50 per entry.
Respond with the bare value in nM.

Use these answered entries as a reference point.
molecule	tgt	measured-attribute	output-unit	data-value
Cc1nn(-c2ncc(C(=O)N[C@H]3CC[C@H](CC(C)(C)O)CC3)cn2)c2cnccc12 [Example 3]	human H-PGDS (Homo sapiens (Human), UniProt O60760)	IC50	nM	21
Cc1nn(-c2ncc(C(=O)N[C@H]3CC[C@@](C)(O)CC3)cn2)c2cc(F)ccc12 [Example 204]	human H-PGDS (Homo sapiens (Human), UniProt O60760)	IC50	nM	14
CC(C)(O)[C@H]1CC[C@H](NC(=O)c2cnc(-n3nc(Cl)c4ccccc43)nc2)CC1 [Example 24]	human H-PGDS (Homo sapiens (Human), UniProt O60760)	IC50	nM	3
Cc1nn(-c2ncc(C(=O)N[C@H]3CC[C@H](C(C)(C)O)CC3)cn2)c2c(C#N)cccc12 [Example 95]	human H-PGDS (Homo sapiens (Human), UniProt O60760)	IC50	nM	144
Cc1nn(-c2ncc(C(=O)N[C@H]3CC[C@H](O)CC3)cn2)c2ccccc12 [Example 18]	human H-PGDS (Homo sapiens (Human), UniProt O60760)	IC50	nM	45
COc1nn(-c2ncc(C(=O)N[C@H]3CC[C@H](O)CC3)cn2)c2ccccc12 [Example 27]	human H-PGDS (Homo sapiens (Human), UniProt O60760)	IC50	nM	225
Cc1nn(-c2ccc(C(=O)NC3CCCCC3)cc2)c2ccccc12 [Example 11]	human H-PGDS (Homo sapiens (Human), UniProt O60760)	IC50	nM	171

Per the reported human H-PGDS (Homo sapiens (Human), UniProt O60760) data, Cc1nn(-c2ccc(C(=O)N[C@H]3CC[C@H](OC4CCS(=O)(=O)CC4)CC3)cn2)c2cc(F)ccc12 [Example 80] has IC50 of 17
